- System: NCI-H1155 (Non-Small Cell Lung Carcinoma)
- experiment: combination Emax (second highest fraction inhibited in the dose matrix, 72 h); higher = more inhibition; extreme values may be limits of the assay
measure name: combination Emax
Returns: the value as a bare number; no unit string appended.

Some compounds with recorded combination Emax:
* CC1(C)CCC(CN2CCN(c3ccc(C(=O)NS(=O)(=O)c4ccc(NCC5CCOCC5)c([N+](=O)[O-])c4)c(Oc4cnc5[nH]ccc5c4)c3)CC2)=C(c2ccc(Cl)cc2)C1 [Venetoclax] + C1CN(CCC1(C(=O)N[C@@H](CCO)C2=CC=C(C=C2)Cl)N)C3=NC=NC4=C3C=CN4 [Capivasertib] (first compound max 1 µM, 7x7, partner max 3 µM) | 0.289
* CS(=O)(=O)CCNCc1ccc(-c2ccc3ncnc(Nc4ccc(OCc5cccc(F)c5)c(Cl)c4)c3c2)o1 [Lapatinib] + C[C@@H](Oc1cc(-c2cnn(C3CCNCC3)c2)cnc1N)c1c(Cl)ccc(F)c1Cl [Crizotinib] (first compound max 10 µM, 7x7, partner max 10 µM) | 0.61

In the following, a different compound is considered.
**Q:** What does the record list as combination Emax for CN(C)CCCOc1ccc(-c2ccc3ncc4c(c3c2)n(C2CCOCC2)c(=O)n4C)cn1 [AZD0156] + C[C@@H]1COCCN1C2=NC(=NC(=C2)C3(CC3)[S@](=N)(=O)C)C4=C5C=CNC5=NC=C4 [AZD6738] (first compound max 1 µM, 7x7, partner max 10 µM) ?
**A:** 0.748

###

The following compounds are shown together with reported combination Emax values.
- Test system: PC-14 (Lung Adenocarcinoma)
- experiment: combination Emax (second highest fraction inhibited in the dose matrix, 72 h); higher = more inhibition; extreme values may be limits of the assay
Lab note: jot down the number only; don't add units.

Solved entries (count: 4):
• COc1nnc2ccc(N3CCC(c4ccc(OCCN5CCN(C)C(=O)[C@H]5C)cc4)CC3)nn12 [AZD5153] + C[C@@H]1COCCN1C2=NC(=NC(=C2)C3(CC3)[S@](=N)(=O)C)C4=C5C=CNC5=NC=C4 [AZD6738] (first compound max 1 µM, 7x7, partner max 10 µM) = 0.85
• COc1cccc(OCCCN)c1-c1cc(Nc2cnc(C#N)cn2)n[nH]1 [Prexasertib] + C=CCn1c(=O)c2cnc(Nc3ccc(N4CCN(C)CC4)cc3)nc2n1-c1cccc(C(C)(C)O)n1 [AZD1775] (first compound max 1 µM, partner max 1 µM) = 0.932
• N#Cc1cnc(Nc2cc(NC[C@H]3CNCCO3)c(C(F)(F)F)cn2)cn1 [SRA737] + O=c1[nH]cc(F)c(=O)[nH]1 [5-Fluorouracil] (first compound max 10 µM, 7x7, partner max 20 µM) = 0.696
• CN(C)CCCOc1ccc(-c2ccc3ncc4c(c3c2)n(C2CCOCC2)c(=O)n4C)cn1 [AZD0156] + CCN(CCO)CCCOc1ccc2c(Nc3cc(CC(=O)Nc4cccc(F)c4)[nH]n3)ncnc2c1 [AZD2811] (first compound max 1 µM, 7x7, partner max 1 µM) = 0.202

**Q:** So what combination Emax did Cc1c2c(nn1C)CSCc1cc(n(C)n1)CSc1cc(c3ccccc3c1)OCCCc1c(C(=O)O)n(C)c3c-2c(Cl)ccc13 [AZD5991] + CCN(CCO)CCCOc1ccc2c(Nc3cc(CC(=O)Nc4cccc(F)c4)[nH]n3)ncnc2c1 [AZD2811] (first compound max 1 µM, 7x7, partner max 1 µM) get with PC-14 (Lung Adenocarcinoma)?
**A:** 0.371

**Q:** API: value(readout=combination Emax, system=PC-14 (Lung Adenocarcinoma)) for record COc1nnc2ccc(N3CCC(c4ccc(OCCN5CCN(C)C(=O)[C@H]5C)cc4)CC3)nn12 [AZD5153] + Cc1c2c(nn1C)CSCc1cc(n(C)n1)CSc1cc(c3ccccc3c1)OCCCc1c(C(=O)O)n(C)c3c-2c(Cl)ccc13 [AZD5991] (first compound max 1 µM, 7x7, partner max 1 µM)
**A:** 0.441

**Q:** Reported combination Emax for PC-14 (Lung Adenocarcinoma), given C=CCn1c(=O)c2cnc(Nc3ccc(N4CCN(C)CC4)cc3)nc2n1-c1cccc(C(C)(C)O)n1 [AZD1775] + CCc1c2c(nc3ccc(O)cc13)-c1cc3c(c(=O)n1C2)COC(=O)[C@]3(O)CC [SN-38] (first compound max 1 µM, partner max 0.3 µM) ?
**A:** 0.929

**Q:** Missing value: combination Emax, PC-14 (Lung Adenocarcinoma), entry Cc1cc2ncnn2cc1Nc1ncc2c(n1)n(C1CCOCC1)c(=O)n2C [AZD7648] + COc1cc([C@@H]2c3cc4c(cc3[C@@H](O[C@@H]3O[C@@H]5CO[C@@H](C)O[C@H]5[C@H](O)[C@H]3O)[C@H]3COC(=O)[C@H]23)OCO4)cc(OC)c1O [Etoposide] (first compound max 10 µM, 7x7, partner max 10 µM) . Fill in?
**A:** 0.757

**Q:** Request - read-out combination Emax | tested on PC-14 (Lung Adenocarcinoma) | compound COc1cc2ncnc(Nc3ccc(F)c(Cl)c3)c2cc1OCCCN1CCOCC1 [Gefitinib] + CC(C)n1c(=O)n(C)c2cnc3cc(F)c(-c4ccc(OCCCN5CCCCC5)nc4)cc3c21 [AZD1390] (first compound max 10 µM, 7x7, partner max 0.3 µM)
**A:** 0.752

**Q:** Any idea what combination Emax came out for CN(C)CCCOc1ccc(-c2ccc3ncc4c(c3c2)n(C2CCOCC2)c(=O)n4C)cn1 [AZD0156] + C=CCn1c(=O)c2cnc(Nc3ccc(N4CCN(C)CC4)cc3)nc2n1-c1cccc(C(C)(C)O)n1 [AZD1775] (first compound max 1 µM, partner max 1 µM) on PC-14 (Lung Adenocarcinoma)?
**A:** 0.866

**Q:** # value lookup — system PC-14 (Lung Adenocarcinoma), readout combination Emax, item C[C@@H](Oc1cc(-c2cnn(C3CCNCC3)c2)cnc1N)c1c(Cl)ccc(F)c1Cl [Crizotinib] + CC1=C(C(=CC=C1)Cl)NC(=O)C2=CN=C(S2)NC3=CC(=NC(=N3)C)N4CCN(CC4)CCO [Dasatinib] (first compound max 10 µM, 7x7, partner max 2 µM)
**A:** 1

**Q:** Entry CN(CCO)CC[C@H](CSc1ccccc1)Nc1ccc(S(=O)(=O)NC(=O)c2ccc(N3CCC([C@@H](O)c4ccccc4-c4ccc(Cl)cc4)CC3)cc2)cc1S(=O)(=O)C(F)(F)F [AZD4320] + CS(=O)(=O)CCNCc1ccc(-c2ccc3ncnc(Nc4ccc(OCc5cccc(F)c5)c(Cl)c4)c3c2)o1 [Lapatinib] (first compound max 1 µM, 7x7, partner max 10 µM) , system PC-14 (Lung Adenocarcinoma): what combination Emax was measured?
**A:** 0.964

**Q:** Give PC-14 (Lung Adenocarcinoma) combination Emax for CC(=O)c1c(C)c2cnc(Nc3ccc(N4CCNCC4)cn3)nc2n(C2CCCC2)c1=O [Palbociclib] + Cc1c2c(nn1C)CSCc1cc(n(C)n1)CSc1cc(c3ccccc3c1)OCCCc1c(C(=O)O)n(C)c3c-2c(Cl)ccc13 [AZD5991] (first compound max 10 µM, 7x7, partner max 1 µM)
**A:** 0.279

**Q:** Fill in the recorded combination Emax for this compound, with PC-14 (Lung Adenocarcinoma) as test system: CC(=O)Nc1cccc(-n2c(=O)n(C3CC3)c(=O)c3c(Nc4ccc(I)cc4F)n(C)c(=O)c(C)c32)c1 [Trametinib] + Cc1nc(-c2cn3c(n2)-c2ccc(-c4cnn(C(C)(C)C(N)=O)c4)cc2OCC3)n(C(C)C)n1 [Taselisib] (first compound max 1 µM, 7x7, partner max 10 µM)
**A:** 1

###

- Test system: NCI-H810 (Non-Small Cell Lung Carcinoma);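 note: after 72 h of two-drug dosing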
- experiment: Bliss excess, mean over the matrix (fraction); higher = more synergy
Documented Bliss excess across a set of compounds
Please respond with just the number, no unit label.

Take a look at these entries with their results.
- O=C(c1cc(Cc2n[nH]c(=O)c3ccccc23)ccc1F)N1CCN(C(=O)C2CC2)CC1 [Olaparib] + COc1nnc2ccc(N3CCC(c4ccc(OCCN5CCN(C)C(=O)[C@H]5C)cc4)CC3)nn12 [AZD5153] (first compound max 10 µM, 7x7, partner max 1 µM): -0.0406
- COc1cccc(OCCCN)c1-c1cc(Nc2cnc(C#N)cn2)n[nH]1 [Prexasertib] + O=C(c1cc(Cc2n[nH]c(=O)c3ccccc23)ccc1F)N1CCN(C(=O)C2CC2)CC1 [Olaparib] (first compound max 1 µM, 7x7, partner max 10 µM): -0.0082
- O=C(c1cc(Cc2n[nH]c(=O)c3ccccc23)ccc1F)N1CCN(C(=O)C2CC2)CC1 [Olaparib] + CC1(C)CCC(CN2CCN(c3ccc(C(=O)NS(=O)(=O)c4ccc(NCC5CCOCC5)c([N+](=O)[O-])c4)c(Oc4cnc5[nH]ccc5c4)c3)CC2)=C(c2ccc(Cl)cc2)C1 [Venetoclax] (first compound max 10 µM, 7x7, partner max 1 µM): -0.0541

Kindly consider the entry below.
**Q:** Which Bliss excess reading was recorded for the compound Cn1cnc2c(F)c(Nc3ccc(Br)cc3Cl)c(C(=O)NOCCO)cc21 [Selumetinib] + C=CCn1c(=O)c2cnc(Nc3ccc(N4CCN(C)CC4)cc3)nc2n1-c1cccc(C(C)(C)O)n1 [AZD1775] (first compound max 10 µM, partner max 1 µM) ?
**A:** -0.0632
